# Assay Text: Saluretic/diuretic screening in rats (method of Lipschitz as modified by Kagawa and Kahn)
# Format: in vivo, male LATI CFY rats
# Run Parameters: single oral dose (5 mg/kg oral screen dose), 24 hours, control 3.0
Recorded Metric: Na/K ratio of the urine discharged

INSERT INTO assay_data (compound, value_reported) VALUES
  ('NS(=O)(=O)c1cc(C(=O)Nn2cnc3cc(C(=O)O)ccc32)ccc1Cl [Example 19]', 3.1),
  ('NS(=O)(=O)c1cc(C(=O)Nn2cnc3cc(C(F)(F)F)ccc32)ccc1Cl [Example 26]', 4.0),
  ('Cc1nc2cc(C(F)(F)F)ccc2n1NC(=O)c1ccc(Cl)c(S(N)(=O)=O)c1 [Example 27]', 4.3),
  ('NS(=O)(=O)c1cc(C(=O)O)c(NCc2ccco2)cc1Cl [Furosemide, reference compound]', 2.7);

* * *

# Assay Text: Saluretic/diuretic screening in rats (method of Lipschitz as modified by Kagawa and Kahn)
# Assay type: in vivo, male LATI CFY rats
# Run Parameters: Rattus norvegicus, single oral dose (5 mg/kg oral screen dose), 24 hours, read-out: Water diuresis, percentage of the simultaneously measured control values
Below, each entry is listed alongside its reported response vs control in vivo at 5 mg/kg.
Recorded Metric: response vs control in vivo at 5 mg/kg (%)

INSERT INTO results (mol, value_reported) VALUES
  ('Cc1nc2cc(C(=O)O)ccc2n1NC(=O)c1ccc(Cl)c(S(N)(=O)=O)c1', 111),
  ('Cc1nc2cc(C(F)(F)F)ccc2n1NC(=O)c1ccc(Cl)c(S(N)(=O)=O)c1', 95),
  ('NS(=O)(=O)c1cc(C(=O)Nn2cnc3cc(C(=O)O)ccc32)ccc1Cl', 117),
  ('Cc1nc2ccccc2n1NC(=O)c1ccc(Cl)c(S(N)(=O)=O)c1', 98);
